molecular target: T1, muCTGF domains 1 and 2 with human Fc tag (murine); experiment: ELISA, coated target
T1 construct: Made by Evitria; also called Murine CTGF1-2-huFc
T1 sequence (chain, as listed by the source limits assumed): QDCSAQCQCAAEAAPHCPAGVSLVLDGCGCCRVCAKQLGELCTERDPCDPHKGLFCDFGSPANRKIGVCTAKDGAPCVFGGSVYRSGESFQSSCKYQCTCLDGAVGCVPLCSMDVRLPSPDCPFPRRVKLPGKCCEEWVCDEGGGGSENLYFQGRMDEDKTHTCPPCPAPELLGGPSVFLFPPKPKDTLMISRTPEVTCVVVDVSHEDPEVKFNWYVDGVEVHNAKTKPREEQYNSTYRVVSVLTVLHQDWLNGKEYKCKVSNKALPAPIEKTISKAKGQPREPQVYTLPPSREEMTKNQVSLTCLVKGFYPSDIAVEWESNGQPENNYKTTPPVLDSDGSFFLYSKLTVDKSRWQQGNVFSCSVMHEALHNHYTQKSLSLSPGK
measured.attribute: pEC50
Formally, pEC50 is defined as -log10 of the concentration c, with c in mol/L.

binder: lipocalin mutein of SEQ ID NO: 29 (designed binder, Parent hNGAL mutein; also called hNGAL mutein) QDSTSDLIPAPPLSKVPLQQNFQDNQFHGKWYVVGWAGNIKLREDKDPFKMSATIYELKEDKSYNVTEVVFEQKKCHYIIKTFVPGSQPGEFTLGDIKSPPGETSSLVRVVSTNYNQHAMVFFKKVFQNREFFWITLYGRTKELTSELKENFIRFSKSLGLPENHIVFPVPIDQCIDGSAWSHPQFEK
pEC50: 7.77

binder: lipocalin mutein of SEQ ID NO: 7 (designed binder, Parent hNGAL mutein; also called hNGAL mutein) QDSTSDLIPAPPLSKVPLQQNFQDNQFHGKWYVVGLAGNYGLRTDKRPSKMFATIYELKEDKSYDVTSVRFEQERCHYTIRTFVPGSQPGEFTTGSIKSRPGQTSSLVRVVSTNYNQHAMVFFKSVIQNREYFAITLYGRTKELTSELKENFIRFSKSLGLPENHIVFPVPIDQCIDGSAWSHPQFEK
pEC50: 7.85

Would you kindly look at the next entry?
Which measured pEC50 value corresponds to lipocalin mutein of SEQ ID NO: 25 (designed binder, Parent hNGAL mutein; also called hNGAL mutein) QDSTSDLIPAPPLSKVPLQQNFQDNQFHGKWYVVGMAGNFRLREDKDPSKMGATIYELKEDKSYNVTQVQFDDKKCLYVIETFVPGSQPGEFTLGAIKSFPGFTSQLVRVVSTNYNQHAMVFFKKVYQNREVFWITLYGRTKELTSELKENFIRFSKSLGLPENHIVFPVPIDQCIDGSAWSHPQFEK ?
7.85
